System: human T lymphoblast cell line (Jurkat)
experiment-summary: Inhibition of T-cell proliferation (3H-TdR incorporation)
Type: cell-based
details: Homo sapiens, 72 h; Jurkat cells, 3 days; read-out: Inhibition of T-cell proliferation in vitro. IC50
pIC50: −log10 of the molar value.
property-measured: pIC50

Below are worked cases with known answers.
CCCNc1ccccc1Oc1ccc(NC(=O)CC)c(C(=O)O)c1 [Compound T]; 6.62
CCC(=O)Nc1ccc(CSc2ccccc2C(F)(F)F)cc1C(=O)O [Compound P]; 6.68

(a) CCC(=O)Nc1ccc(COc2ccccc2OC(F)(F)F)cc1C(=O)O [Compound AD]
(b) CCCNc1ccccc1Sc1ccc(NC(=O)CC)c(C(=O)O)c1 [Compound AA]
(c) CCC(=O)Nc1ccc(Oc2cc(C(F)(F)F)cc(C(F)(F)F)c2)cc1C(=O)O [Compound S]
(d) CCC(=O)Nc1ccc(Oc2ccccc2C(F)(F)F)cc1C(=O)O [Compound L]
Exam item: Given 4 molecules, produce a descending ranking by pIC50. Dear reader, please state the labels in the requested order.
Marked response: b, c, a, d
(b: 7.40, c: 6.85, a: 6.62, d: 6.11)
